# Test system: Mus musculus
# assay.protocol: Toxicity in mouse assessed as tail bleeding time at 0.50 mmol/kg, po administered 60 mins prior to tail transection measured every 30 secs (reference value: 120.4 +/- 7.9 sec)
# Assay type: organism-based
# protocol.conditions: in vivo
measure: Time (s)
Number in s, nothing else.

# get_value(readout= Time, system= Mus musculus) for CC1(C)CC(n2cc(CNC(=O)[C@@H](CO)NC(=O)[C@@H]3Cc4c([nH]c5ccccc45)CN3C(=O)[C@@H]3Cc4c([nH]c5ccccc45)CN3)nn2)CC(C)(C)N1[O]
122.5

Request: Time, test system Mus musculus, entry CC1(C)CC(n2cc(CNC(=O)[C@@H](CCCCN)NC(=O)[C@@H]3Cc4c([nH]c5ccccc45)CN3C(=O)[C@@H]3Cc4c([nH]c5ccccc45)CN3)nn2)CC(C)(C)N1[O]
120.5

Hi! What's the reported Time for CC1(C)CC(n2cc(CNC(=O)CNC(=O)[C@@H]3Cc4c([nH]c5ccccc45)CN3C(=O)[C@@H]3Cc4c([nH]c5ccccc45)CN3)nn2)CC(C)(C)N1[O] on Mus musculus?
116.4

# query: Time | item C[C@@H](NC(=O)[C@@H]1Cc2c([nH]c3ccccc23)CN1C(=O)[C@@H]1Cc2c([nH]c3ccccc23)CN1)C(=O)NCc1cn(C2CC(C)(C)N([O])C(C)(C)C2)nn1 | system: Mus musculus
117.7

Param readout= Time; system= Mus musculus; entry= CC1(C)CC(n2cc(CNC(=O)C[C@@H](NC(=O)[C@@H]3Cc4c([nH]c5ccccc45)CN3C(=O)[C@@H]3Cc4c([nH]c5ccccc45)CN3)C(=O)NCc3cn(C4CC(C)(C)N([O])C(C)(C)C4)nn3)nn2)CC(C)(C)N1[O] ; returns value.
119.3

Identify the measured Time of CC1(C)CC(n2cc(CNC(=O)[C@@H](Cc3ccc(O)cc3)NC(=O)[C@@H]3Cc4c([nH]c5ccccc45)CN3C(=O)[C@@H]3Cc4c([nH]c5ccccc45)CN3)nn2)CC(C)(C)N1[O] for Mus musculus.
117.5

Record CC1(C)CC(n2cc(CNC(=O)CC[C@@H](NC(=O)[C@@H]3Cc4c([nH]c5ccccc45)CN3C(=O)[C@@H]3Cc4c([nH]c5ccccc45)CN3)C(=O)NCc3cn(C4CC(C)(C)N([O])C(C)(C)C4)nn3)nn2)CC(C)(C)N1[O] : what is its Time with Mus musculus?
119

Please provide the recorded Time for CC1(C)CC(n2cc(CNC(=O)[C@@H](CCC(N)=O)NC(=O)[C@@H]3Cc4c([nH]c5ccccc45)CN3C(=O)[C@@H]3Cc4c([nH]c5ccccc45)CN3)nn2)CC(C)(C)N1[O] , tested on Mus musculus.
120.6

Enter reported Time observed with Mus musculus for CC[C@@H](C)[C@@H](NC(=O)[C@@H]1Cc2c([nH]c3ccccc23)CN1C(=O)[C@@H]1Cc2c([nH]c3ccccc23)CN1)C(=O)NCc1cn(C2CC(C)(C)N([O])C(C)(C)C2)nn1
116.1

====

# Test system: Mus musculus
# assay.protocol: Toxicity in mouse assessed as tail bleeding time at 0.50 mmol/kg, po administered 45 mins prior to tail transection measured every 30 secs (reference value: 119.8 +/- 8.4 sec)
# Format: organism-based
# protocol.conditions: in vivo
I'd be grateful if you could share measured Time for these entries.
The reply should contain only the number, in s.

Returns the measured Time for the input compound. Input: C[C@@H](O)[C@@H](NC(=O)[C@@H]1Cc2c([nH]c3ccccc23)CN1C(=O)[C@@H]1Cc2c([nH]c3ccccc23)CN1)C(=O)NCc1cn(C2CC(C)(C)N([O])C(C)(C)C2)nn1
117.3

Fill in: Time of CC(C)[C@@H](NC(=O)[C@@H]1Cc2c([nH]c3ccccc23)CN1C(=O)[C@@H]1Cc2c([nH]c3ccccc23)CN1)C(=O)NCc1cn(C2CC(C)(C)N([O])C(C)(C)C2)nn1 is ___
119.3

Bench note: what Time did CC1(C)CC(n2cc(CNC(=O)CNC(=O)[C@@H]3Cc4c([nH]c5ccccc45)CN3C(=O)[C@@H]3Cc4c([nH]c5ccccc45)CN3)nn2)CC(C)(C)N1[O] show?
114.5
